subjectOfTest: Dyrk1A (Homo sapiens)
experimentalProtocol: Z'-LYTE kinase inhibition assay, Dyrk1A
Format: biochemical
conditionsUsed: read-out: Dyrk1A % Inh. At 1 µM
measureName: inhibition at 1 µM (%)

Please review the following examples before continuing.
O=C(c1cc2cc(O)ccc2s1)N1Cc2ccc(Cl)cc2C1 13
O=C(NCc1cc(Cl)cc(Cl)c1)c1cc2cc(O)ccc2s1 41
COc1cccc(CNC(=O)c2cc3cc(O)ccc3s2)c1OC 14
Cc1ccc(CNC(=O)c2cc3cc(O)ccc3s2)cc1 8
O=C(NCc1cccnc1)c1cc2cc(O)ccc2s1 34

(a) COc1cc(CNC(=O)c2cc3cc(O)ccc3s2)cc(OC)c1
(b) O=C(NCc1ccco1)c1cc2cc(O)ccc2s1
Request: From the recorded data, which exceeds the other in inhibition at 1 µM: a or b ? Could you answer with the label of the item you picked?
Response: b
(b: 66%, a: 12%)

(a) COc1ccc(CNC(=O)c2cc3cc(O)ccc3s2)cc1OC
(b) O=C(NCc1cccs1)c1cc2cc(O)ccc2s1
Request: From the recorded data, which exceeds the other in inhibition at 1 µM: a or b ? Could you answer with the label of the item you picked?
Response: b

###

subjectOfTest: Clk1 (Homo sapiens, UniProt P49759)
Sequence (P49759 whole entry): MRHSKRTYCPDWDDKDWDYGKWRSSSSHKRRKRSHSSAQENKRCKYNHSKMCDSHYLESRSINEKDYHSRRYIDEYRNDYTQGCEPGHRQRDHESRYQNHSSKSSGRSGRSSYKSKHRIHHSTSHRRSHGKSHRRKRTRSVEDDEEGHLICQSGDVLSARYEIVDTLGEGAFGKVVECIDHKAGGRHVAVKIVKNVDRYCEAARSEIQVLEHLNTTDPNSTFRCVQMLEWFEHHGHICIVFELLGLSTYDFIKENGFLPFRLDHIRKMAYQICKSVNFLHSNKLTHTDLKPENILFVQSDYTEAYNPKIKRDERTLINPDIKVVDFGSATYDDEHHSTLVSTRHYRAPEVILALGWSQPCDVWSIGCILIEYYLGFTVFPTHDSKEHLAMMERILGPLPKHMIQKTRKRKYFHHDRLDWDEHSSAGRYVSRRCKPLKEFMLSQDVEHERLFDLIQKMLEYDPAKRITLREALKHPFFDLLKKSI
experimentalProtocol: Z'-LYTE kinase inhibition assay, Clk1
Format: biochemical
conditionsUsed: read-out: Clk1 % Inh. At 1 µM
measureName: inhibition at 1 µM (%)

molecule	inhibition at 1 µM, %
Cc1ccc(CNC(=O)c2cc3cc(O)ccc3s2)cc1 [Compound 10]	30
O=C(NCCc1ccccc1)c1cc2cc(O)ccc2s1 [Compound 29]	61

(1) COc1cc(CNC(=O)c2cc3cc(O)ccc3s2)cc(OC)c1 [Compound 23]
(2) O=C(NCc1ccc(Cl)cc1)c1cc2cc(O)ccc2s1 [Compound 4]
Request: Min inhibition at 1 µM? 1 | 2 Could you answer with the label of the item you picked?
Response: 1
(1: 22%, 2: 40%)

(A) O=C(NCc1cc(F)cc(F)c1)c1cc2cc(O)ccc2s1 [Compound 17]
(B) O=C(NCc1cccnc1)c1cc2cc(O)ccc2s1 [Compound 26]
Request: Min inhibition at 1 µM? A | B Could you answer with the label of the item you picked?
Response: B

###

Tested on: HCT-116 cells
experimentalProtocol: CCK-8 cell viability, HCT-116
Format: cell-based
conditionsUsed: Homo sapiens, HCT-116, read-out: HCT-116 IC50 in µM; 72 h, CCK-8, 50% inhibition of viability
measureName: IC50 (µM)

molecule	IC50 (µM)
COc1cccc(CNC(=O)c2cc3cc(O)ccc3s2)c1 [Compound 12]	6.4
O=C(NCc1cc(F)cc(F)c1)c1cc2cc(O)ccc2s1 [Compound 17]	8.1

###

measureName: melting point

Please review the following examples before continuing.
compound	melting point
O=C(NCc1ccccc1F)c1cc2cc(O)ccc2s1 [Compound 5]	199.8 to 201.7 °C
Cc1cccc(CNC(=O)c2cc3cc(O)ccc3s2)c1 [Compound 9]	176.3 to 178.4 °C
O=C(c1cc2cc(O)ccc2s1)N1Cc2ccc(Cl)cc2C1 [Compound 25]	224.9 to 226 °C

Request: melting point for COc1ccc(CNC(=O)c2cc3cc(O)ccc3s2)c(OC)c1 [Compound 21] ?
Response: 163.3 to 164.5 °C

Request: melting point for COc1ccc(CNC(=O)c2cc3cc(O)ccc3s2)cc1 [Compound 13] ?
Response: 176.5 to 178 °C

Request: melting point for Cc1ccccc1CNC(=O)c1cc2cc(O)ccc2s1 [Compound 8] ?
Response: 159.1 to 161.2 °C

Request: melting point for O=C(NCc1cccs1)c1cc2cc(O)ccc2s1 [Compound 27] ?
Response: 139.6 to 141.4 °C

Request: melting point for O=C(c1cc2cc(O)ccc2s1)N1CCc2ccccc2C1 [Compound 24] ?
Response: 198.8 to 200.8 °C

Request: melting point for O=C(NCc1cccc(Cl)c1)c1cc2cc(O)ccc2s1 [Compound 3] ?
Response: 211.2 to 212.3 °C

Request: melting point for Cc1cc(C)cc(CNC(=O)c2cc3cc(O)ccc3s2)c1 [Compound 19] ?
Response: 140.2 to 141.8 °C

###

subjectOfTest: Clk1 (Homo sapiens)
experimentalProtocol: Z'-LYTE kinase inhibition assay, Clk1
Assay type: biochemical
conditionsUsed: ATP conc. equivalent to Km
measureName: IC50 (nM)

molecule	measured
O=C(NCc1cc(Cl)cc(Cl)c1)c1cc2cc(O)ccc2s1 [Compound 14]	744

(I) O=C(NCc1ccccc1)c1cc2cc(O)ccc2s1 [Compound 1]
(II) O=C(NCc1cc(F)cc(F)c1)c1cc2cc(O)ccc2s1 [Compound 17]
Request: Min IC50? I | II Could you answer with the label of the item you picked?
Response: II

###

subjectOfTest: Dyrk1B (Homo sapiens, UniProt Q9Y463)
Sequence (Q9Y463 whole entry): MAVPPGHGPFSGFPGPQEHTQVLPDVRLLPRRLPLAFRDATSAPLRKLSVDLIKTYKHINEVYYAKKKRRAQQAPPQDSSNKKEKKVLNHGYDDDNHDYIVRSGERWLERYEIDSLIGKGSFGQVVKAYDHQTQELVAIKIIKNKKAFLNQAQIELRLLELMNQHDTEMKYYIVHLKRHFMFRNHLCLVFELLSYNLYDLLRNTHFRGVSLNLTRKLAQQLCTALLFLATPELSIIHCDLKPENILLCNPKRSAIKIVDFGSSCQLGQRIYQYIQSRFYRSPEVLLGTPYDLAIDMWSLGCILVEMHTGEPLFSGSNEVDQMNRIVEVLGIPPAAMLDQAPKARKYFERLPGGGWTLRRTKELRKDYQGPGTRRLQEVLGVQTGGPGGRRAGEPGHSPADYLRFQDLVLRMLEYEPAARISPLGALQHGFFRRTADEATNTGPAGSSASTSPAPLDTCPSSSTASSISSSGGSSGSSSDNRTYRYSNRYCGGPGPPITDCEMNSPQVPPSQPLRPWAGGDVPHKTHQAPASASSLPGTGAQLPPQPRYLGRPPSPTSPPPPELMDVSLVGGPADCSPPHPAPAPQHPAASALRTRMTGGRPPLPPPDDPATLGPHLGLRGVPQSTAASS
experimentalProtocol: Z'-LYTE kinase inhibition assay, Dyrk1B
Format: biochemical
conditionsUsed: read-out: Dyrk1B % Inh. At 1 µM
measureName: inhibition at 1 µM (%)

Please review the following examples before continuing.
O=C(NCc1ccc(Cl)cc1)c1cc2cc(O)ccc2s1 0
COc1cccc(CNC(=O)c2cc3cc(O)ccc3s2)c1 81
COc1ccccc1CNC(=O)c1cc2cc(O)ccc2s1 64

(1) O=C(c1cc2cc(O)ccc2s1)N1CCc2ccccc2C1
(2) O=C(NCc1ccccc1Cl)c1cc2cc(O)ccc2s1
Request: Min inhibition at 1 µM? 1 | 2 Could you answer with the label of the item you picked?
Response: 1

###

subjectOfTest: Clk1 (Homo sapiens)
experimentalProtocol: Z'-LYTE kinase inhibition assay, Clk1
Format: biochemical
conditionsUsed: read-out: Clk1 % Inh. At 1 µM
Excerpt: 3. Experimental procedure for protein kinases and inhibition assays. 3.1 The Z ́ -LYTE biochemical assay for screening and IC 50 determination for Clk1, Dyrk1A, Dyrk1B, Clk2 and Clk3 kinases. The assay employs a fluorescence-based, coupled-enzyme format and is based on the differential sensitivity of phosphorylated and non-phosphorylated peptides to proteolytic cleavage. […] Both cleaved and uncleaved FRET-peptides contribute to the fluorescence signals and therefore to the Emission Ratio. […]
measureName: inhibition at 1 µM (%)

(a) O=C(NCc1cccs1)c1cc2cc(O)ccc2s1 [Compound 27]
(b) O=C(c1cc2cc(O)ccc2s1)N1CCc2ccccc2C1 [Compound 24]
Request: From the recorded data, which exceeds the other in inhibition at 1 µM: a or b ? Could you answer with the label of the item you picked?
Response: a

(a) O=C(NCc1cccc(F)c1)c1cc2cc(O)ccc2s1 [Compound 6]
(b) O=C(NCc1cc(C(F)(F)F)cc(C(F)(F)F)c1)c1cc2cc(O)ccc2s1 [Compound 18]
Request: Min inhibition at 1 µM? a | b Could you answer with the label of the item you picked?
Response: b
(b: 26%, a: 72%)

###

Property: melting point; scope: individual compounds

Please review the following examples before continuing.
O=C(NCc1ccc(F)cc1)c1cc2cc(O)ccc2s1 195 to 197.2 °C
COc1ccccc1CNC(=O)c1cc2cc(O)ccc2s1 128.5 to 130.7 °C
O=C(NCc1ccccc1Cl)c1cc2cc(O)ccc2s1 140.2 to 142 °C
O=C(NCc1cccc(F)c1)c1cc2cc(O)ccc2s1 176.7 to 177.7 °C

Here is the next item to consider.
Request: melting point for `COc1ccc(CNC(=O)c2cc3cc(O)ccc3s2)cc1OC` ?
Response: 188.3 to 190.3 °C

###

Test system: A549 cells
experimentalProtocol: CCK-8 cell viability, A549
Format: cell-based
conditionsUsed: Homo sapiens, 72 h, CCK-8, mean ± S.E.M. (n = 3), read-out: A549 % Inh. at μM
Experimental: All cells were purchased from Bioresource Collection and Research Center (Hsinchu, Taiwan) and cultured in corresponding media supplemented with 10% fetal bovine serum, 1 × Antibiotic-Antimycotic at 37 °C in a humidified incubator with 5% CO2. […] T24 cells were cultured in McCoy’s 5a media. […] Cells were incubated with the Cell Counting Kit-8 (CCK-8) reagent (TargetMol, Boston, MA, USA) at 37 °C for 2 h. The cell viability was determined by spectrophotometer at 450 nm.
Property: inhibition at 20 µM; scope: individual compounds
Write the answer as a number in %, unit excluded.

compound	inhibition at 20 µM / %
O=C(NCc1cccc(F)c1)c1cc2cc(O)ccc2s1 [Compound 6]	36.5

Here is the next item to consider.
Request: inhibition at 20 µM for COc1cccc(CNC(=O)c2cc3cc(O)ccc3s2)c1 [Compound 12] ?
Response: 41

###

Property: IC50; scope: individual molecules
experimentalProtocol: Cell viability in normal cells, IEC-6
Assay type: cell-based
conditionsUsed: rat, IEC-6 rat intestine epithelial cells (normal cells), 50% inhibition

COc1cccc(CNC(=O)c2cc3cc(O)ccc3s2)c1 > 20 µM

Here is the next item to consider.
Request: IC50 for `O=C(NCc1cc(F)cc(F)c1)c1cc2cc(O)ccc2s1` ?
Response: > 20 µM
